# Test system: LOC_OS01G10900-cb004;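 note: purified Escherichia coli-expressed rice kinase domain construct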
# protocol-notes: thermal shift delta Tm vs DMSO control; higher = stronger stabilization (binding)
# conditions: 12.5 µM; protein concentration 2 µM
observable: thermal shift delta Tm (°C)
State just the number; it will be interpreted in °C.

compound	thermal shift delta Tm (°C)
COc1ccc(CNC(=O)Nc2ncc([N+](=O)[O-])s2)cc1	0.34
CC(C)CCN1c2nc(Nc3cc(F)c(O)c(F)c3)ncc2N(C)C(=O)C1C (stereo unspecified)	2.63

Prompt: Quick check: thermal shift delta Tm of O=C(Nc1ccccc1C(=O)NC1CCCCNC1=O)c1cc2ccccc2s1 (stereo unspecified) ?
Response: 0.05

Prompt: Need thermal shift delta Tm of `COc1cc2nccc(Oc3ccc(NC(=O)c4cn(C(C)C)c(=O)n(-c5ccc(F)cc5)c4=O)cc3F)c2cc1OC` , thanks.
Response: -0.15

Prompt: Given the entry `COc1cc(N2CCC(N3CCN(C)CC3)CC2)ccc1Nc1ncnc(Nc2ccccc2S(=O)(=O)C(C)C)n1` , report its measured thermal shift delta Tm.
Response: 0.08

Prompt: Form field: reported thermal shift delta Tm of `N#Cc1ccc2ncnc(NCCc3ccccc3)c2c1`
Response: 0.41

Prompt: Which value of thermal shift delta Tm has been reported for OC1CCC(Oc2cccc3cnc(Nc4ccc5nc[nH]c5c4)nc23)CC1 (stereo unspecified) in the records?
Response: 1.42

Prompt: Which thermal shift delta Tm is reported for this compound? `C[C@@]1(C(=O)Nc2ccc(F)nc2)CCCN1c1nc(Nc2cc(C3CC3)n[nH]2)c2cccn2n1`
Response: 0.11
